Can you tell me GI50 for the items I'm about to list?
System: SNB-75 CNS
Experiment: NCI tumour cell line growth inhibition, 48 h

Task: What value of GI50 has been reported for the following compound? C=CCN1C=CC(=O)[C@H](O[Si](C)(C)C(C)(C)C)[C@@H]1/C=C/c1ccccc1
Output: 10500 nM

Task: Recorded GI50 of Nc1ccc2c3c(n(CCCCl)c(=O)c2c1)-c1cc2c(cc1C3=O)OCO2 , please.
Output: > 100000 nM

Task: Recorded GI50 of C=C[C@H]1CCC/C=C/[C@@H]2C[C@H](O)C[C@H]2[C@H](O)/C=C/C(=O)O1 , please.
Output: < 10 nM

Task: // lookup GI50 for c1cc(OCCN2CCCCC2)ccc1CNc1ccc2nc(CCC3CCCCC3)[nH]c2c1
Output: 1620 nM

Task: Looking for the measured GI50 of CCCN1CCN(c2ccc3nc(-c4ccc5nc(-c6cc(OC)ccc6OC)[nH]c5c4)[nH]c3c2)CC1 , can you help?
Output: 12800 nM

Task: Dear colleague, I am looking for the recorded GI50 of the following compound: CC[O-].CC[O-].O=C1C(c2ccccc2)=C([O-])c2ccccc21.O=C1C(c2ccccc2)=C([O-])c2ccccc21.[Ti+4]
Output: > 100000 nM

Task: Returns the measured GI50 for the input compound. Input: O=C(Nc1ccc(F)cc1F)c1cc(Br)ccc1O
Output: 558 nM

Task: Find the recorded GI50 belonging to O=C(CC12CC3CC(CC(C3)C1)C2)NCCOCCOCCOCCNC(=O)c1cc2c(o1)C(=O)c1ccccc1C2=O and report it.
Output: 2020 nM

Task: Recorded GI50 of Cc1ccc(-c2nc(N)nc3c2nnn3Cc2cccc(CO[C@H]3CCOC3)n2)o1 , please.
Output: 41500 nM

Task: What does the record list as GI50 for COc1ccc(-c2nc3ncccn3c2/C=C/C(=O)c2cc(OC)c(OC)c(OC)c2)cc1 ?
Output: 1890 nM

Task: Consider the compound COc1c(Cl)c2c(c(OC)c1OC)-c1ccc(SC)c(=O)cc1[C@@H](NC(=O)OCC(F)(F)F)CC2 and give its measured GI50.
Output: < 10 nM

Task: Query: GI50; subject: COc1ccc(-c2ccc(/C=N/n3c(COc4ccc(Cl)cc4Cl)nn(CN4CCN(C)CC4)c3=S)o2)c([N+](=O)[O-])c1
Output: 67500 nM

Task: Give the measured GI50 of CCCCCCCCCCC(O)C1CCC(C(O)CCC(O)C2CCC(CCCCCCC[C@H](O)CC3=C[C@@H](C)OC3=O)O2)O1 (stereo partly drawn) .
Output: 2920 nM

====

Tested on: A498 renal
Assay: NCI tumour cell line growth inhibition, 48 h; in the data active = GI50 below about 0.43 µM; inactive = the rest
Respond using exactly one of the listed classes: active, inactive

Task: Recorded call for O=C(CC12CC3CC(CC(C3)C1)C2)NCCOCCOCCOCCNC(=O)c1cc2c(o1)C(=O)c1ccccc1C2=O ?
Output: inactive

Task: Per the records of this test, what outcome belongs to COc1ccc(-c2nc3ncccn3c2/C=C/C(=O)c2cc(OC)c(OC)c(OC)c2)cc1 ?
Output: inactive

Task: What outcome does the record of this test show for COc1ccc2c(CN3CCC[C@H]3C(=O)O)cc3cc4c(cc3c2c1)OCO4 ?
Output: inactive

Task: What classification did CC1(C)CC(n2cnc(-c3ccc(F)cc3)c2-c2ccnc(N)n2)CC(C)(C)N1 end up with in this test?
Output: inactive

Task: # fetch the recorded call for COc1c(Cl)c2c(c(OC)c1OC)-c1ccc(SC)c(=O)cc1[C@@H](NC(=O)OCC(F)(F)F)CC2 here
Output: active

Task: Per the records of this test, what outcome belongs to C[C@@H]1N=C(c2ccc(Br)cc2)Nc2nc3ccccn3c2C1=O ?
Output: inactive

Task: // return assay outcome for O=S(=O)(c1ccc(N=C2NN=C(c3c[nH]c4ccccc34)CS2)cc1)N1CCOCC1
Output: inactive

Task: Please let me know the test result on file for COc1ccc(C2=C(c3ccc(OC)c(OC)c3)C(=O)OC2)cc1 .
Output: active

Task: What outcome does the record of this test show for O=C(Nc1ccc(F)cc1F)c1cc(Br)ccc1O ?
Output: inactive

Task: In this assay, the call recorded for NC(=O)c1ccc2c(-c3ccnc(NCCCO)n3)c(-c3ccc(F)cc3)nn2c1 was what?
Output: inactive

Task: Identify the outcome logged in this assay for the compound shown: COc1cc2c(cc1OCCCCCCN1CCN(c3ncnc4ccccc34)CC1)N=CC1CCCN1C2=O (configuration not stated)
Output: active

Task: How did this test come out for COc1ccc(CNc2c3ccccc3nc3ccc(OC)cc23)cc1 ?
Output: inactive

Task: Outcome logged for Cc1cc(N2CCN(c3ccnc4cc(Cl)ccc34)CC2)nc(NC2CCCCC2)n1 in this assay:
Output: active

Task: Outcome? C=C[C@H]1CCC/C=C/[C@@H]2C[C@H](O)C[C@H]2[C@H](O)/C=C/C(=O)O1
Output: active

Task: Could you please tell me the result logged for O=C([O][Hg][CH2]C1COCC([CH2][Hg][O]C(=O)c2ccccc2)O1)c1ccccc1 (configuration not stated) in this assay?
Output: inactive

Task: Per the records of this test, what outcome belongs to CC(C)CNc1nc(-c2ccccc2)nc2ccccc12 ?
Output: inactive

Task: Recorded test outcome, item NC1CCCCC1N.O=S(=O)([O-])CCCN1CCOCC1.O=S(=O)([O-])CCCN1CCOCC1.[Pt+4]
Output: inactive

====

Exercise: for every item that follows, state its recorded TGI.
Tested on: A498 renal
Assay: NCI tumour cell line growth inhibition, 48 h
Answer format: numeric, µM implied, no suffix.

Task: Identify the measured TGI of Cc1cc(N2CCN(c3ccnc4cc(Cl)ccc34)CC2)nc(NC2CCCCC2)n1 for A498 renal.
Output: 3.21

Task: Param readout= TGI; system= A498 renal; entry= COc1cc2c(Oc3ccc4[nH]c(C)cc4c3F)ccnc2cc1OCC1(N)CC1 ; returns value.
Output: 19.7

Task: Lookup: TGI / A498 renal / COc1cc(C2c3cc4c(cc3OC(Nc3ccccc3)C2C)OCO4)cc(OC)c1OC (configuration not stated)
Output: 1.69

====

Kindly state TGI for each of the entries shown.
Tested on: UACC-257 melanoma
Experiment: NCI tumour cell line growth inhibition, 48 h

Task: Please provide the recorded TGI for COc1ccc2c(c1)CCc1[nH]c3ccccc3c1CCCC2 , tested on UACC-257 melanoma.
Output: > 10 µM

Task: Requested read-out TGI, target or system UACC-257 melanoma, entry COc1ccc(-c2ccc(/C=N/n3c(COc4ccc(Cl)cc4Cl)nn(CN4CCN(C)CC4)c3=S)o2)c([N+](=O)[O-])c1
Output: 59.6 µM

Task: Record CC(C)(C)[Si](C)(C)OCC1CCC(n2cnc3c(N)ncnc32)O1 (stereo not given) : what is its TGI with UACC-257 melanoma?
Output: > 100 µM

Task: // lookup TGI | system=UACC-257 melanoma | key= COc1ccc(C(=O)OC2C=COC(C)C2OC(=O)c2ccc(OC)cc2)cc1 (stereo not given)
Output: > 72.4 µM

Task: Under UACC-257 melanoma: TGI value of COC(=O)C(=O)C(C(=O)C(=O)Nc1ccccc1C(C)=O)c1nc2ccc(C(=O)c3ccccc3)cc2[nH]c1=O (stereo not given) ?
Output: > 100 µM

Task: Item CN(C)C(=O)Nc1cc2c3c(c1)CCCN3CCC2 with UACC-257 melanoma - TGI?
Output: > 10 µM

Task: Given the entry CC1=C(C(=O)NCCc2ccccc2)CC(C(=O)NCCc2ccccc2)=C(C)N1 , what TGI was observed with UACC-257 melanoma?
Output: > 100 µM

Task: Fill in the recorded TGI for this compound, with UACC-257 melanoma as test system: C=C[C@H]1CCC/C=C/[C@@H]2C[C@H](O)C[C@H]2[C@H](O)/C=C/C(=O)O1
Output: > 100 µM

Task: Identify the measured TGI of O=c1[nH]c(=S)[nH]n1C(=S)n1[nH]c(=S)[nH]c1=O for UACC-257 melanoma.
Output: > 100 µM

Task: What value of TGI on UACC-257 melanoma does CC1(C)CCCCCCC2OC2CCCCCC(C)(C)C1=O (stereo not given) have?
Output: > 93.5 µM

====

System: OVCAR-4 ovarian
Test: NCI tumour cell line growth inhibition, 48 h
So I've got a bunch of compounds here, and I need their TGI values.

Task: What value of TGI has been reported for the following compound? CCOC(=O)C1C(c2ccc(OC)cc2)c2c([nH][nH]c2=O)CC1(O)OCC (stereo not given)
Output: > 100 µM

Task: Please report the recorded TGI for CCCCCCCCCCCCC(O)C1CCC(C(O)CCCCCCC(O)CCCCCCCC2=CC(C)OC2=O)O1 (stereo not given) .
Output: > 100 µM

Task: Fill in the blank: the reported TGI of Cc1cc(I)cc(CN(C)CCN2CCCC2)c1O is ____.
Output: > 100 µM

Task: Which TGI reading was recorded for the compound CCCn1c(SCC)c2cc3cc4ccccc4cc3cc2c1-c1nc(F)nc(F)n1 ?
Output: > 100 µM

Task: For C=CCN(CC=C)C(=O)c1cc(C)nc2c1c(=O)n(-c1ccccc1)c(=O)n2CC(O)CN1CCN(c2ncccn2)CC1 (stereo not given) , what is its reported TGI?
Output: > 100 µM

Task: What TGI value was documented for this compound, Cc1nn(-c2ccccc2)c2[nH]c(=S)cnc12 ?
Output: > 100 µM

Task: // TGI lookup, key: CC(=O)OC1COC(n2c(-c3ccc(Cl)cc3)cc(-c3ccccc3)c(C#N)c2=S)C(OC(C)=O)C1OC(C)=O (stereo not given)
Output: 11.1 µM

Task: Could you share which TGI value was measured for O=C(CCc1ccc(O)cc1)NCCc1cccc(OCc2ccccc2)c1 ?
Output: > 100 µM

Task: Quick check: TGI of C1CCN(C2OC3C(COC3N3CCCCC3)OC2OC2CCO[C@@H]2N2CCCCC2)CC1 (stereo not given in full) ?
Output: > 100 µM

Task: I would be grateful if you could share the reported TGI for CC1=CC(=O)C(=O)C2=C1OC1(C2)C(C)CCC2C3(C)CCC(O)C(C)(C)C3CCC21C (stereo not given) .
Output: 37.4 µM

Values compiled from PubChem BioAssay (NCI).
